# MEASURED_TARGET: T1, human CD3 on human T cells (Jurkat) (human, UniProt P07766 23-207; P04234 22-171; P09693 23-182)
# T1 construct: whole, on cells; also called huCD3+; cell surface CD3 on human (Jurkat) T cells
# T1 sequence (P07766 23-207, chain 1 of 3): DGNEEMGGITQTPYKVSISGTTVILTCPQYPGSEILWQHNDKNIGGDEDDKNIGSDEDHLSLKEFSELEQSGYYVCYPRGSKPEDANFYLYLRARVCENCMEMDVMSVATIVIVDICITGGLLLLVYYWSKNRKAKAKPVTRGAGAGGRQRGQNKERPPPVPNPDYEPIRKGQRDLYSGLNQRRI
# T1 sequence (P04234 22-171, chain 2 of 3): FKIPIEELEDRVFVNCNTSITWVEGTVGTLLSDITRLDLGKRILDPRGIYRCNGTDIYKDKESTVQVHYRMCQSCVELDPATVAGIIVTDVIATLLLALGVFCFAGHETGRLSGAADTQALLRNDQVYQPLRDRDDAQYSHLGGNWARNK
# T1 sequence (P09693 23-182, chain 3 of 3): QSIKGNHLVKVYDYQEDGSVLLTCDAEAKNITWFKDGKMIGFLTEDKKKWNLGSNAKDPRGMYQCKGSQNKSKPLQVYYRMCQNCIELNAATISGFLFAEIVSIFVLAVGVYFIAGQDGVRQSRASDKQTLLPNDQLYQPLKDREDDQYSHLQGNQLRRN
# MEASUREMENT_DESCRIPTION: flow cytometry, Jurkat cells, 200 nM antibody
ATTRIBUTE_MEASURED: MFI
// keep it numeric: no unit symbol after the value

INPUT: Please look at this binder and report its MFI: HuL7H2 (Fab, V domains shown, Humanized Fab expressed in Expi293F; also called VL7 + VH2 humanized Fab) VH: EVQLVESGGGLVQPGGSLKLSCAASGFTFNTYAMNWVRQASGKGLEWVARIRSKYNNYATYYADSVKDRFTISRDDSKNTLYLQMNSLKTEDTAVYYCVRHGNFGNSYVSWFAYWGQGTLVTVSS VL: QAVVTQEPSLTVSPGGTVTLTCRSSTGAVTTSNYANWVQQKPGQAFRGLIGGTNKRAPGTPARFSGSLLGDKAALTISGAQPEDEAEYYCALWYSNLWVFGGGTKLTVL
OUTPUT: 28900

INPUT: Please list MFI recorded for the binder huL5H2 (heavy chain SEQ ID NO: 41 and light chain SEQ ID NO: 39) (Fab, V domains shown, also called VL5 kappa + H2 Fab) VH: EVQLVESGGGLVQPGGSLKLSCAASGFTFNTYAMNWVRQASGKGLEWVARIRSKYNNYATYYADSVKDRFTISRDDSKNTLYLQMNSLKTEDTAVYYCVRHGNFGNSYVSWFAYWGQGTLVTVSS VL: QAVVTQEPSLTVSPGGTVTLTCRSSTGAVTTSNYANWVQQKPDHLFRGLIGGTNKRAPGTPARFSGSLLGDKAALTISGAQPEDEAEYYCALWYSNLWVFGGGTKLTVLK
OUTPUT: 48000

INPUT: Item HuL8H2 (Fab, V domains shown, Humanized Fab expressed in Expi293F; also called VL8 + VH2 humanized Fab) VH: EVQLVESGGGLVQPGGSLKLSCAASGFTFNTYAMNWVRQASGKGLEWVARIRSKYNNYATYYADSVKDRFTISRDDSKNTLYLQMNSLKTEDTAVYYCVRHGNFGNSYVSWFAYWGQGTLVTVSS VL: QAVVTQEPSLTVSPGGTVTLTCGSSTGAVTTSNYANWVQQKPDHLFRGLIGGTNKRAPGTPARFSGSLLGGKAALTISGAQPEDEAEYYCALWYSNLWVFGGGTKLTVL : provide MFI
OUTPUT: 42000

INPUT: Retrieve MFI measured for Murine anti-CD3 (antibody, V domains shown, also called murine anti-CD3 VL/VH) VH: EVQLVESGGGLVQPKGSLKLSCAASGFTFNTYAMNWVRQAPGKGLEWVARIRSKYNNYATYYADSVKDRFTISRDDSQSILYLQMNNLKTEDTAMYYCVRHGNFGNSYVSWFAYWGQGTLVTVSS VL: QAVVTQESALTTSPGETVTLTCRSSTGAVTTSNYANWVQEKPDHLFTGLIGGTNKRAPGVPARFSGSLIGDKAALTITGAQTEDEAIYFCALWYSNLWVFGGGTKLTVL and print it.
OUTPUT: 50600

INPUT: Provide only the value of recorded MFI for HuL2H2 (Fab, V domains shown, Humanized Fab expressed in Expi293F; also called VL2 + VH2 humanized Fab) VH: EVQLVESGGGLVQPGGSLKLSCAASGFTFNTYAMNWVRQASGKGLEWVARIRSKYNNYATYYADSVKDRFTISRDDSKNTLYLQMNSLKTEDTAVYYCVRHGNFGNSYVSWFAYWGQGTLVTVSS VL: QAVVTQEPSLTVSPGGTVTLTCGSSTGAVTTSNYANWVQQKPGQAFRGLIYGTNKRAPWTPARFSGSLLGGKAALTISGAQPEDEAEYYCALWYSNLWVFGGGTKLTVL
OUTPUT: 1460
